molecular target: T1, cyclo (CGHHQKG) (SEQ ID NO: 2)-BSA (cyclized peptide, cyclo(CGHHQKG); conjugated to BSA); experiment: SPR multi-cycle kinetics, purified IgG4 vs cyclic peptide-BSA
T1 construct: also called cyclic peptide-BSA; cyclo-BSA peptide
T1 sequence (P02769 25-607 limits assumed): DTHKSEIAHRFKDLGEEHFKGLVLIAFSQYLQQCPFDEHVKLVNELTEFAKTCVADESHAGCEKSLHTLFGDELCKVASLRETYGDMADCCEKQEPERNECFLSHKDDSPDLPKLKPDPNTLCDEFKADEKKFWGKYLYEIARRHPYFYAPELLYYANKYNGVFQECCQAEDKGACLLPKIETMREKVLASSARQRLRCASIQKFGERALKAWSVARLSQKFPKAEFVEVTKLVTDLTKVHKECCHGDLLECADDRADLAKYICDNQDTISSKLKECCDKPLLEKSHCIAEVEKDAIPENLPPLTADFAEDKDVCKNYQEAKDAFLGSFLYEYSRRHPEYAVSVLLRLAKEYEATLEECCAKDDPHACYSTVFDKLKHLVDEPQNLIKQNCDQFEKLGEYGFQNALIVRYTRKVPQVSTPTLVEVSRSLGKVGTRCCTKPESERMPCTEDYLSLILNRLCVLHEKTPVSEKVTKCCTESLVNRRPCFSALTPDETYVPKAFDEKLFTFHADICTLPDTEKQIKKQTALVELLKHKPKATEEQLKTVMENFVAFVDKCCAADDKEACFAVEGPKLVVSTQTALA
Reported pKd is given for each of the following binders.
Please note pKd is a logarithmic value: minus log10 of concentration in mol/L. Answer with that number alone.

BINDER	pKd
Clone 4 (affinity matured VH with parental Vk, human IgG4 S241P / kappa) (antibody, V domains shown) VH: QVQLVQSGAEVKKPGASVKMSCKASGYSFTSYWINWVKQRPGQGLEWIGDVHPGRGVSTYNAKFKSRATLTLDTSISTAYMELSSLRSEDTAVYYCARVSPTGYWFFDVWGQGTTVTVSS VL: DVLMTQSPLSLPVTLGQPASISCRSSQSIVHSNGNTYLEWYQQRPGQSPRLLIYKVSNRFSGVPDRFSGSGSGTDFTLKISRVEAEDVGVYYCFQGSHVPFTFGQGTKLEIKR	10.63
Clone 5 (affinity matured VH with parental Vk, human IgG4 S241P / kappa) (antibody, V domains shown) VH: QVQLVQSGAEVKKPGASVKMSCKASGYSFTSYWINWVKQRPGQGLEWIGDVHPGRGVSTYNAKFKSRATLTLDTSISTAYMELSSLRSEDTAVYYCARGALSPYWFFDVWGQGTTVTVSS VL: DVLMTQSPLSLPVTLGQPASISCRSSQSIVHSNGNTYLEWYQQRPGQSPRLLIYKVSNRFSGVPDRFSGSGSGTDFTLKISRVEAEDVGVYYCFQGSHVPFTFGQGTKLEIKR	10.19
Clone 14 (affinity matured VH with parental Vk, human IgG4 S241P / kappa) (antibody, V domains shown) VH: QVQLVQSGAEVKKPGASVKMSCKASGYSFTSYWINWVKQRPGQGLEWIGDVHPGRGVSTYNAKFKSRATLTLDTSISTAYMELSSLRSEDTAVYYCAKSDASGYWFFDVWGQGTTVTVSS VL: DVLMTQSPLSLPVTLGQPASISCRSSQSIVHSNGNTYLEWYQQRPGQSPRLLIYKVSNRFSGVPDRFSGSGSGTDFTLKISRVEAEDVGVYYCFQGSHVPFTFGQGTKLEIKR	10.54

Now for another entry.
### Prompt For the binder shown here, parental antibody, PMN310 humanized antibody variant VH2/Vk5 (human IgG4 S241P / kappa) (antibody, V domains shown, also called parental huPMN310; huPMN310) VH: QVQLVQSGAEVKKPGASVKMSCKASGYSFTSYWINWVKQRPGQGLEWIGDVHPGRGVSTYNAKFKSRATLTLDTSISTAYMELSSLRSEDTAVYYCSRSHGNTYWFFDVWGQGTTVTVSS VL: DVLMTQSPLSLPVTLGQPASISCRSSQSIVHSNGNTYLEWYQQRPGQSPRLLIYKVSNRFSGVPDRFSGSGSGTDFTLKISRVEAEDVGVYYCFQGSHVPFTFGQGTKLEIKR , give the reported pKd.
### Response 10.56
